- assay_remarks: pharmacokinetic parameters of VPA in dogs after oral administration of the ester or DEPAKINE
- Format: in vivo, dog
- cond: dog, in vivo, po, 400 mg, VPA; dog 1; oral; 400 mg; read-out: ke, elimination rate constant (converted)
reported_property: k el (s⁻¹)

compound="CCCC(CCC)C(=O)OC(C)OC(=O)OCC (stereo not shown)" reported_property="k el" observed_value=9.17e-05

---

- assay_remarks: pharmacokinetic parameters of VPA in dogs after oral administration of the ester or DEPAKINE
- Type: in vivo, dog
- cond: dog, in vivo, po, 400 mg, VPA; dog 5; oral; 400 mg; read-out: t max obs, observed time to reach peak plasma concentration (converted)
reported_property: Tmax (h)

compound="CCCC(CCC)C(=O)OC(C)OC(=O)OCC (stereo not shown)" observed_value=1.2

---

- assay_remarks: pharmacokinetic parameters of VPA in dogs after oral administration of the ester or DEPAKINE
- Assay type: in vivo, dog
- cond: dog, in vivo, po, 400 mg, VPA; dog 3; oral; 400 mg; read-out: ke, elimination rate constant (converted)
reported_property: k el (s⁻¹)

compound="CCCC(CCC)C(=O)OC(C)OC(=O)OCC (stereo not shown)" reported_property="k el" observed_value=0.00202

---

- assay_remarks: pharmacokinetic parameters of VPA in dogs after oral administration of the ester or DEPAKINE
- Assay type: in vivo, dog
- cond: dog, in vivo, po, 400 mg, VPA; dog 4; oral; 400 mg; read-out: ke, elimination rate constant (converted)
reported_property: k el (s⁻¹)

molecule="CCCC(CCC)C(=O)OC(C)OC(=O)OCC (stereo not shown)" reported_property="k el" observed_value=0.000108

---

- assay_remarks: pharmacokinetic parameters of VPA in dogs after oral administration of the ester or DEPAKINE
- Format: in vivo, dog
- cond: dog, in vivo, po, 400 mg, VPA; dog 4; oral; 400 mg; read-out: AUC, area under the plasma conc. vs. time curve (row head is drawing 3) (converted)
reported_property: AUC (ng·h/mL)

molecule="CCCC(CCC)C(=O)OC(C)OC(=O)OCC (stereo not shown)" unit_info=ng·h/mL observed_value=81200

---

- assay_remarks: pharmacokinetic parameters of VPA in dogs after oral administration of the ester or DEPAKINE
- Format: in vivo, dog
- cond: dog, in vivo, po, 400 mg, VPA; dog 1; oral; 400 mg; read-out: t1/2 elimin. (converted)
reported_property: half-life

compound="CCCC(CCC)C(=O)OC(C)OC(=O)OCC (stereo not shown)" reported_property=half-life observed_value="2.1 h"

---

- assay_remarks: pharmacokinetic parameters of VPA in dogs after oral administration of the ester or DEPAKINE
- Format: in vivo, dog
- cond: dog, in vivo, po, 400 mg, VPA; dog 2; oral; 400 mg; read-out: V
reported_property: Vd/F (L)

compound="CCCC(CCC)C(=O)OC(C)OC(=O)OCC (stereo not shown)" observed_value=5.35

---

- assay_remarks: pharmacokinetic parameters of VPA in dogs after oral administration of the ester or DEPAKINE
- Type: in vivo, dog
- cond: dog, in vivo, po, 400 mg, VPA; dog 2; oral; 400 mg; read-out: ke, elimination rate constant (converted)
reported_property: k el

compound="CCCC(CCC)C(=O)OC(C)OC(=O)OCC (stereo not shown)" reported_property="k el" observed_value="0.000108 s⁻¹"

---

- assay_remarks: pharmacokinetic parameters of VPA in dogs after oral administration of the ester or DEPAKINE
- Type: in vivo, dog
- cond: dog, in vivo, po, 400 mg, VPA; dog 2; oral; 400 mg; read-out: AUC, area under the plasma conc. vs. time curve (row head is drawing 3) (converted)
reported_property: AUC

compound="CCCC(CCC)C(=O)OC(C)OC(=O)OCC (stereo not shown) [1'-ethoxycarbonyloxyethyl ester]" observed_value="167 µg·h/mL"

---

- assay_remarks: pharmacokinetic parameters of VPA in dogs after oral administration of the ester or DEPAKINE
- Assay type: in vivo, dog
- cond: dog, in vivo, po, 400 mg, VPA; dog 4; oral; 400 mg; read-out: t max obs, observed time to reach peak plasma concentration (converted)
reported_property: Tmax

compound="CCCC(CCC)C(=O)OC(C)OC(=O)OCC (stereo not shown)" observed_value="2.5 h"

---

- assay_remarks: pharmacokinetic parameters of VPA in dogs after oral administration of the ester or DEPAKINE
- Assay type: in vivo, dog
- cond: dog, in vivo, po, 400 mg, VPA; dog 4; oral; 400 mg; read-out: t1/2 elimin. (converted)
reported_property: half-life (h)

compound="CCCC(CCC)C(=O)OC(C)OC(=O)OCC (stereo not shown)" observed_value=1.78

---

- assay_remarks: pharmacokinetic parameters of VPA in dogs after oral administration of the ester or DEPAKINE
- Format: in vivo, dog
- cond: dog, in vivo, po, 400 mg, VPA; dog 2; oral; 400 mg; read-out: t1/2 elimin. (converted)
reported_property: half-life (h)

molecule="CCCC(CCC)C(=O)OC(C)OC(=O)OCC (stereo not shown)" unit_info=h observed_value=1.78

---

- assay_remarks: pharmacokinetic parameters of VPA in dogs after oral administration of the ester or DEPAKINE
- Assay type: in vivo, dog
- cond: dog, in vivo, po, 400 mg, VPA; dog 4
reported_property: CL/F (mL/min)

compound="CCCC(CCC)C(=O)OC(C)OC(=O)OCC (stereo not shown) [1'-ethoxycarbonyloxyethyl ester]" reported_property=CL/F unit_info=mL/min observed_value=56.5

---

- assay_remarks: pharmacokinetic parameters of VPA in dogs after oral administration of the ester or DEPAKINE
- Type: in vivo, dog
- cond: dog, in vivo, po, 400 mg, VPA; dog 2
reported_property: CL/F (mL/min)

compound="CCCC(CCC)C(=O)OC(C)OC(=O)OCC (stereo not shown) [1'-ethoxycarbonyloxyethyl ester]" observed_value=34.8

---

- assay_remarks: pharmacokinetic parameters of VPA in dogs after oral administration of the ester or DEPAKINE
- Assay type: in vivo, dog
- cond: dog, in vivo, po, 400 mg, VPA; dog 4; oral; 400 mg; read-out: V
reported_property: Vd/F (L)

molecule="CCCC(CCC)C(=O)OC(C)OC(=O)OCC (stereo not shown)" reported_property=Vd/F observed_value=8.69

---

- assay_remarks: stability of the ester in plasma in vitro
- Format: in vitro ADME
- cond: plasma in vitro, room temperature, first order kinetics
reported_property: half-life

compound="CCCC(CCC)C(=O)OC(C)OC(=O)OCC (stereo not shown)" observed_value="2.23 h"

---

- assay_remarks: pharmacokinetic parameters of VPA in dogs after oral administration of the ester or DEPAKINE;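 note: comparator arm received VPA orally as the free acid rather than as the ester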
- Assay type: in vivo, dog
- cond: dog, in vivo, po, 400 mg, VPA; dog 1; oral; 400 mg; read-out: AUC, area under the plasma conc. vs. time curve (row head is drawing 3) (converted)
reported_property: AUC (ng·h/mL)

compound="CCCC(CCC)C(=O)OC(C)OC(=O)OCC (stereo not shown)" observed_value=76800
